# Measured on: BRD4-BD1 (Homo sapiens (Human), UniProt O60885)
# Experimental details: BRD4-H4 Tetraacetylated Peptide Inhibition AlphaScreen
# Conditions used: GST-BRD4-BD1 (aa 44-168), biotinylated Acetyl-Histone H4 peptide
Reported pIC50 values follow for various compounds
The meaning of pIC50 here: minus log10 of the concentration in molar units.

> print(dat)
                                   compound  measurement
1  Cc1cc(-c2nc3cnc(C4CCOCC4)cc3n2[C@@H](C)c2ccccc2)nn(C)c1=O [II-25]         8.10
2  Cc1c(-c2nc3cnc(N4CCN(C)CC4)cc3n2Cc2ccccc2)cn(C)c(=O)c1C [II-41]         5.92
3  Cc1cc(-c2nc3cnc(N4CCOC[C@@H]4C)cc3n2Cc2ccccn2)cn(C)c1=O [II-17]         6.80
4  Cn1cc(-c2nc3cccnc3n2Cc2ccccc2)ccc1=O [III-2]         5.75
5  CC1CC(=O)NN=C1c1ccc2c(c1)nc(-c1ccc(=O)n(C)c1)n2Cc1ccccc1 (centres unmarked) [IV-2]         6.66
6  Cc1cc(-c2nc3ccc(N4CCOCC4)cc3n2Cc2ccccc2)c[nH]c1=O [Example I-3]         6.96

Value (pIC50, BRD4-BD1 (Homo sapiens (Human), UniProt O60885)) for record Cc1cc(-c2nc3ccc(C4CN(C)CCO4)cc3n2[C@@H](C)c2ccccc2)nn(C)c1=O (some centres unmarked) [Example I-33] = 7.33

Value (pIC50, BRD4-BD1 (Homo sapiens (Human), UniProt O60885)) for record Cc1cc(-c2nc3ccc(C4CN(C)CCO4)cc3n2[C@@H](C)c2ccccc2)cn(C)c1=O (some centres unmarked) [Example I-34] = 7.31
